# procedure.summary: Parallel artificial membrane permeability assay (PAMPA)
# assay.setup: PAMPA Papp, replicate 3; BQL: No significant peak detected for the peptide in the acceptor wells
Where a SMILES comes first, the peptide text is derived from it. [ ]: non-standard residue; d: D form. NMeL = CN[C@@H](CC(C)C)C(=O)O; dNMeL = CN[C@H](CC(C)C)C(=O)O; dNMeA = CN[C@H](C)C(=O)O
quantity.kind: PAMPA_R3

compound	observed.result
CC[C@@H](C)[C@H]1NC(=O)[C@@H](C)N(C)C(=O)[C@H](CC(C)C)NC(=O)[C@@H](CC(C)C)NC(=O)[C@H]2CCCN2C(=O)[C@H](CC(C)C)N(C)C(=O)[C@@H](C(C)C)NC(=O)[C@@H](CC(C)C)N(C)C(=O)[C@H](C(C)C)NC(=O)[C@@H](C(C)C)NC(=O)[C@@H]2CCCN2C(=O)[C@H]2CCCN2C1=O [Design D12.10] (cyclo([dV]V[dNMeL][dV][NMeL][dP][dL]L[dNMeA][dI][dP]P))	BQL

Every entry's value here was drawn from paper PMC9490236.
